- targetOrSystem: the molecule itself
- assayInfo: FRET or BRET; LRET between Tb3+ chelate (donor) and Bodipy FL (acceptor) on L51C of the two Rad50^NBD in MR^NBD complexes with Mre11; donor-sensitized acceptor lifetimes, three-exponential fit; no ATP (apo); 0.5 uM wild type, L828A, D829A or 2.0 uM L828F, D829N complexes; 50 mM Tris, 200 mM NaCl, 5 mM MgCl2, pH 7.5, 50 °C; percent of LRET-visible molecules only
testReadout: percent of molecules in the closed state

What value of measured percent of molecules in the closed state is listed for P. furiosus Rad50 nucleotide binding domain L51C/D829A, LRET-labelled (domain or fragment, Pyrococcus furiosus, Tb3+ chelate DTPA-cs124-EMPH (donor) or Bodipy FL maleimide (acceptor) on the cysteine L51C, Rad50, Pyrococcus furiosus, amino acids 1-195; linker that replaces most of the coiled-coil and the Zn-hook; Rad50, Pyrococcus furiosus, amino acids 709-882; Measured within the MR^NBD complex with Mre11; also called D829A MR^NBD (LRET); source: labelled and passed over Superdex 200 Increase) MKLERVTVKNFRSHSDTVVEFKEGINLIIGQNGSGKSSLLDAILVGLYWPCRIKDIKKDEFTKVGARDTYIDLIFEKDGTKYRITRRFLKGYSSGEIHAMKRLVGNEWKHVTEPSSKAISAFMEKLIPYNIFLNAIYIRQGQIDAILESDEAREKVVREVLNLDKFETAYKKLSELKKTINNRIKEYRDILARTEGGAGGAGGRERVKKEIKDLEKAKDFTEELIEKVKKYKALAREAALSKIGELASEIFAEFTEGKYSEVVVRAEENKVRLFVVWEGKERPLTFLSGGERIALGLAFRLAMSLYLAGEISLLILDEPTPYLAEERRRKLITIMERYLKKIPQVILVSHDEELKDAADHVIRISLENGSSKVEVVS ?
42%

Queued: P. furiosus Rad50 nucleotide binding domain L51C/L828A, LRET-labelled (domain or fragment, Pyrococcus furiosus, Tb3+ chelate DTPA-cs124-EMPH (donor) or Bodipy FL maleimide (acceptor) on the cysteine L51C, Rad50, Pyrococcus furiosus, amino acids 1-195; linker that replaces most of the coiled-coil and the Zn-hook; Rad50, Pyrococcus furiosus, amino acids 709-882; Measured within the MR^NBD complex with Mre11; also called L828A MR^NBD (LRET); source: labelled and passed over Superdex 200 Increase) MKLERVTVKNFRSHSDTVVEFKEGINLIIGQNGSGKSSLLDAILVGLYWPCRIKDIKKDEFTKVGARDTYIDLIFEKDGTKYRITRRFLKGYSSGEIHAMKRLVGNEWKHVTEPSSKAISAFMEKLIPYNIFLNAIYIRQGQIDAILESDEAREKVVREVLNLDKFETAYKKLSELKKTINNRIKEYRDILARTEGGAGGAGGRERVKKEIKDLEKAKDFTEELIEKVKKYKALAREAALSKIGELASEIFAEFTEGKYSEVVVRAEENKVRLFVVWEGKERPLTFLSGGERIALGLAFRLAMSLYLAGEISLLILDEPTPYADEERRRKLITIMERYLKKIPQVILVSHDEELKDAADHVIRISLENGSSKVEVVS
46%

Queued: P. furiosus Rad50 nucleotide binding domain L51C/D829N, LRET-labelled (domain or fragment, Pyrococcus furiosus, Tb3+ chelate DTPA-cs124-EMPH (donor) or Bodipy FL maleimide (acceptor) on the cysteine L51C, Rad50, Pyrococcus furiosus, amino acids 1-195; linker that replaces most of the coiled-coil and the Zn-hook; Rad50, Pyrococcus furiosus, amino acids 709-882; Measured within the MR^NBD complex with Mre11; also called D829N MR^NBD (LRET); source: labelled and passed over Superdex 200 Increase) MKLERVTVKNFRSHSDTVVEFKEGINLIIGQNGSGKSSLLDAILVGLYWPCRIKDIKKDEFTKVGARDTYIDLIFEKDGTKYRITRRFLKGYSSGEIHAMKRLVGNEWKHVTEPSSKAISAFMEKLIPYNIFLNAIYIRQGQIDAILESDEAREKVVREVLNLDKFETAYKKLSELKKTINNRIKEYRDILARTEGGAGGAGGRERVKKEIKDLEKAKDFTEELIEKVKKYKALAREAALSKIGELASEIFAEFTEGKYSEVVVRAEENKVRLFVVWEGKERPLTFLSGGERIALGLAFRLAMSLYLAGEISLLILDEPTPYLNEERRRKLITIMERYLKKIPQVILVSHDEELKDAADHVIRISLENGSSKVEVVS
33%
